- Tested on: MGC-803
- test.summary: Antiproliferative activity against human MGC-803 cells assessed as inhibition of cell proliferation measured after 72 hrs by MTT assay
- Format: functional, cell-based
- measurement.setup: MGC-803, 72 h
measured.parameter: pIC50
A value of pIC50 is the negative decimal logarithm of a concentration given in moles per litre.

Examples with answers:
mol: Cc1cc(Nc2cc(-c3ccc(F)cc3)[nH]n2)n2nc(SCc3ccc(Br)cc3)nc2n1
pIC50: 5.66

mol: Cc1cc(Nc2cc(-c3ccc(Cl)cc3)[nH]n2)n2nc(SCc3ccc(Br)cc3)nc2n1
pIC50: 5.56

mol: C=CCSc1nc2nc(C)cc(Nc3cc(-c4ccccc4)[nH]n3)n2n1
pIC50: 4.76

mol: Cc1cc(Nc2cc(C(C)(C)C)[nH]n2)n2nc(SCc3ccc(Br)cc3)nc2n1
pIC50: 5.25

mol: CCCCCc1c(C)nc2nc(SCc3ccc(Cl)cc3)nn2c1Nc1cc(-c2ccccc2)[nH]n1
pIC50: 5.15

mol: Cc1cc(Nc2ccn(Cc3cccc4ccccc34)n2)n2nc(SCc3ccc(Br)cc3)nc2n1
pIC50: 5.49

// assay MGC-803, entry `Cc1cc(Nc2cc(-c3ccccc3)[nH]n2)n2nc(SCc3ccc([N+](=O)[O-])cc3)nc2n1` , pIC50 value = 5.37

// assay MGC-803, entry `Cc1ccc(CSc2nc3nc(C)cc(Nc4cc(-c5ccccc5)[nH]n4)n3n2)cc1` , pIC50 value = 5.16

// assay MGC-803, entry `Cc1cc(Nc2cc(-c3ccccc3)[nH]n2)n2nc(SCc3csc4ccccc34)nc2n1` , pIC50 value = 5.64

====

Collected pIC50 values appear next to each entry.
- Test system: MCF7
- test.summary: Antiproliferative activity against human MCF7 cells assessed as inhibition of cell proliferation measured after 72 hrs by MTT assay
- Assay type: functional, cell-based
- measurement.setup: MCF7, 72 h
A value of pIC50 is the negative decimal logarithm of a concentration given in moles per litre.

Examples with answers:
mol: Cc1cc(Nc2cc(-c3ccc(Cl)cc3)[nH]n2)n2nc(SCc3ccc(Br)cc3)nc2n1
measured.value: 5.44

mol: Cc1cc(Nc2cc(-c3ccccc3)[nH]n2)n2nc(SCc3ccc(F)cc3)nc2n1
measured.value: 5.40

mol: Cc1cc(Nc2cc(-c3ccccc3)[nH]n2)n2nc(SCC(=O)c3ccccc3)nc2n1
measured.value: 5.28

mol: Cc1cc(Nc2ccn(Cc3ccc(C(F)(F)F)cc3)n2)n2nc(SCc3ccc(Br)cc3)nc2n1
measured.value: 5.64

mol: Cc1cc(Nc2cc(-c3ccc(F)cc3)[nH]n2)n2nc(SCc3ccc(Br)cc3)nc2n1
measured.value: 5.34

The measured pIC50 associated with `Cc1cc(Nc2cc(-c3ccccc3)[nH]n2)n2nc(SCc3nc4ccccc4[nH]3)nc2n1` reads 5.56

The measured pIC50 associated with `Cc1ccc(Cn2ccc(Nc3cc(C)nc4nc(SCc5ccc(Br)cc5)nn34)n2)cc1` reads 4.95

The measured pIC50 associated with `Cc1cc(Nc2cc(-c3ccccc3)[nH]n2)n2nc(SCc3ccc(C(F)(F)F)cc3)nc2n1` reads 5.32

The measured pIC50 associated with `Cc1cc(Nc2cc(-c3ccccc3)[nH]n2)n2nc(SCCCc3ccccc3)nc2n1` reads 5.41

The measured pIC50 associated with `Cc1cc(Nc2cc(-c3ccccc3)[nH]n2)n2nc(SCc3ccccc3Br)nc2n1` reads 5.52
